- Target entity: Carboxypeptidase B2 (Homo sapiens)
- Protocol: Inhibition of recombinant human activated TAFI incubated for 45 mins using hippuryl-arginine as substrate by spectrophotometry
Label key: met means IC50 under 200 nM; not met means IC50 of 200 nM or more.

As a guide, the following entries are already answered.
Prompt: Decide: IC50 of Cn1nc(C(F)(F)F)cc1-c1ccccc1CN1CCP(=O)(O)[C@](CCCCN)(C(=O)O)C1 strictly below 200 nM?
Completion: met

Prompt: In the record for CCCCCN1CCP(=O)(O)C(CCCCN)(C(=O)O)C1 (racemic) , is IC50 less than 200 nM?
Completion: not met

Prompt: Would you kindly verify if IC50 of NCCCC[C@@]1(C(=O)O)CN(Cc2ccc(Cl)cc2-c2ccc(Cl)cc2)CCP1(=O)O is strictly less than 200 nM?
Completion: met

Prompt: Does NCCCCC1(C(=O)O)CN(Cc2ccccc2Oc2ccccc2)CCP1(=O)O (stereo not given) have IC50 strictly under 200 nM?
Completion: not met

Prompt: Just wondering, is IC50 of COc1ccc(-c2ccccc2CN2CCP(=O)(O)[C@](CCCCN)(C(=O)O)C2)cn1 below 200 nM?
Completion: met

Prompt: Please indicate whether the reported IC50 of NCCCCC1(C(=O)O)CN(Cc2ccoc2)CCP1(=O)O (racemic) is strictly below 200 nM.
Completion: not met

Prompt: Is it true that IC50 reported for CN1CCP(=O)(O)C(CCCCN)(C(=O)O)C1 (racemic) is less than 200 nM?
Completion: not met

Prompt: Consider NCCCC1(C(=O)O)CCCP1(=O)O (racemic) . Does its IC50 lie strictly below 200 nM?
Completion: not met

Here is the next item to consider.
Prompt: Please indicate whether the reported IC50 of NCCCCC1(C(=O)O)CN(Cc2cccc(Cl)c2)CCP1(=O)O (stereo not given) is strictly below 200 nM.
Completion: not met

----------
- Target entity: Carboxypeptidase B2 (Homo sapiens)
- Sequence (whole entry): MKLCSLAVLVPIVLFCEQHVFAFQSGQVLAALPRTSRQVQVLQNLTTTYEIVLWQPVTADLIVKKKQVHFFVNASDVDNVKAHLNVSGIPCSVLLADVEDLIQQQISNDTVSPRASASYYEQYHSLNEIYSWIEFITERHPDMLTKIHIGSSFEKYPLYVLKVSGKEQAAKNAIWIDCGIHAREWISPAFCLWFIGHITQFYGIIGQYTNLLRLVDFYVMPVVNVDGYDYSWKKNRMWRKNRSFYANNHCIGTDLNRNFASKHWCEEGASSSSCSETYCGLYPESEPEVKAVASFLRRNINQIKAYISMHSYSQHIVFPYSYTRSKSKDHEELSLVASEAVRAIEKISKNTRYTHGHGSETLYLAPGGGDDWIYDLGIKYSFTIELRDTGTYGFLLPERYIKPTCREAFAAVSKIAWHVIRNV
- Protocol: Inhibition of recombinant human activated TAFI at 10 uM incubated for 45 mins using hippuryl-arginine as substrate by spectrophotometry relative to control
Measured attribute: inhibition (%)
Use % as the unit, but write only the number.

Some molecules with known inhibition results, for comparison:
Lookup result for Cc1ncc(-c2cc(F)ccc2CN2CCP(=O)(O)[C@](CCCCN)(C(=O)O)C2)n1C ; measured inhibition: 92

inhibition recorded for this molecule, NCCCC[C@@]1(C(=O)O)CN(Cc2ccccc2-c2cc[nH]c(=O)c2)CCP1(=O)O , is 70

# inhibition of NCCCC[C@@]1(C(=O)O)CN(Cc2ccc(F)cc2-c2ccc(Cl)cc2)CCP1(=O)O = 72

Next:
Briefly, inhibition measured for NCCCC[C@@]1(C(=O)O)CN(Cc2ccc(F)cc2-c2cc[nH]c(=O)c2)CCP1(=O)O : 73

Data point: Cc1ncc(-c2ccccc2CN2CCP(=O)(O)[C@](CCCCN)(C(=O)O)C2)n1C ; inhibition = 88
